Property: log10(EC50); scope: individual binders
biological target: T1, recombinant LILRB1 (human, UniProt Q8NHL6 24-461); experiment: ELISA, coated recombinant LILRB1, antibody titration;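 also: serially diluted anti-LILRB1 antibodies incubated 60 min at 37 °C on plates coated with 50 ng/well recombinant protein, TMB colorimetric development read as absorbance at 450 nm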
T1 construct: LILRB1-Fc proteins were also made; also called LILRB1 recombinant proteins
T1 sequence (Q8NHL6 24-461 limits assumed): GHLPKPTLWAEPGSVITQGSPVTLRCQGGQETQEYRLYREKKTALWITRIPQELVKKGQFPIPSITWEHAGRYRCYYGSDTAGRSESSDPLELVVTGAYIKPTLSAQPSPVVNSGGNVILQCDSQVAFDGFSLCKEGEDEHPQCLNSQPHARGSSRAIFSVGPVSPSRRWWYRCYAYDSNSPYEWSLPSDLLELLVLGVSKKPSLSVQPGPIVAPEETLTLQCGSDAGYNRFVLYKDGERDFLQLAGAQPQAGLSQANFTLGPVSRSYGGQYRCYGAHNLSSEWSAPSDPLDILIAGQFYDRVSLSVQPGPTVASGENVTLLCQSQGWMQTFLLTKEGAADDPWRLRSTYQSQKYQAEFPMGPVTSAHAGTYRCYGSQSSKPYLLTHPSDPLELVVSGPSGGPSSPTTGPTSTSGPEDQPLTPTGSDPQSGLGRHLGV
In plain terms, each number is the log10 of measured EC50 in µg/mL.

B1-#190 (antibody, V domains shown, recombinant rabbit IgG) VH: QEQLKESGGDLVKPEGSLTLTCTASGFSFSSDYWVCWVRQAPGKGPEWIGCIYTGDDDTYYASWAKGRFTISKTSSTTVTLEVTSLTAADTATYFCARGLTIGTAELYFWGPGTVVTVSS VL: ELVLTQTPSPVSAAVGGTVTINCQASQSISNELSWYQQKPGQPPKLLIYLASTLDSGVPSRFKGSGSGTQFTLTISDLECADAATYYCQSHYYGGSSDYGWAFGGGTEVVVK: -2.17
B1-#196-2 (antibody, V domains shown, recombinant rabbit IgG) VH: QEQLVESGGGLVQPEGSLTLTCTDSGFSFTKNYYMCWVRQAPGKGLEWIGCIYAGSTNTFYASWAKGRFTISKASSTTVDLKMTSLTVADTATYFCARDFVSYLNLWGPGTLVTVSS VL: ELDMTQTPSSTSAAVGGTVTIKCQASQSVYNNNQLSWFQQKPGQPPKRLIYGASTLESGVPSRFSGSGSGTQFTLTISDLECDDAATYYCQGAVSSDYYPFGGGTEVEIK: -0.82
B1-#38 (antibody, V domains shown, recombinant rabbit IgG) VH: EQSVEESEGGLVQPEGSLTLTCTASGFSFSNDYWICWVRQAPGKGLEWIGCGHIGSFRTTYYASWAKGRFSISKTSSTTVTLQMTSLTGADTATYFCARSPYDDGYGGFTFNLWGPGTLVTISS VL: ELDMTQTPSSVEAAVGGTVTVKCQVSQSIGNAIAWYQQKPGQPPKLLIYKASTLASGVPSRFKGSGSGTEFTLTISDLECADAATYYCQNYYYSNTNSFGGGTEVVVK: -0.74
B1-#175 (antibody, V domains shown, recombinant rabbit IgG) VH: ESEGGLVKPGGTLTLTCKVSGIDFNSYKYYYMCWVRQAPGKGLEWIGCMSTASRNIYYASWAKGRFTISETSSTSVTLQMTTLTAADTATYFCAKSHGGDGGYGVVLWGPGTLVTISS VL: ELVMTQTPSSVSAAVGDTLTINCQASETISNRLAWYQQKPGQPPKLLIYSASTLESGVPSRFRGSGSGTQFTLTISDLECADAATYYCQSIRSSSGVVHPNTFGGGTEVEIK: -2.28

Let's switch to this binder now.
[in] Data request, read-out log10(EC50), for B1-#58-1 (antibody, V domains shown, recombinant rabbit IgG) VH: EQSLEESGGDLVKPGASLTLTCTASAFSFSSSSWICWVRQAPGKGLEWIACIYGGSVGTTYYASWAKGRFTISKPSSTTVTLQMTSLAAADTATYFCATNTDSSRSYYNLWGPGTLVTISS VL: ELVLTQTPSSVEVAVGGAVTIKCQASHIITNYLAWYQQRPGQPPKLLIYDASKLASGVPSRFKGSGSGTEFTLTISDLECADAATYYCQNYLYFSSGDWNVFGGGTEVVVK
[out] -1.77

Source: patent US12723078
